# TARGET OR TEST SYSTEM: CFTR-mediated chloride transport in human intestinal epithelial enteroid cells (Homo sapiens, UniProt P13569)
# Sequence (P13569 with tags, fused parts or gaps DEL508-508): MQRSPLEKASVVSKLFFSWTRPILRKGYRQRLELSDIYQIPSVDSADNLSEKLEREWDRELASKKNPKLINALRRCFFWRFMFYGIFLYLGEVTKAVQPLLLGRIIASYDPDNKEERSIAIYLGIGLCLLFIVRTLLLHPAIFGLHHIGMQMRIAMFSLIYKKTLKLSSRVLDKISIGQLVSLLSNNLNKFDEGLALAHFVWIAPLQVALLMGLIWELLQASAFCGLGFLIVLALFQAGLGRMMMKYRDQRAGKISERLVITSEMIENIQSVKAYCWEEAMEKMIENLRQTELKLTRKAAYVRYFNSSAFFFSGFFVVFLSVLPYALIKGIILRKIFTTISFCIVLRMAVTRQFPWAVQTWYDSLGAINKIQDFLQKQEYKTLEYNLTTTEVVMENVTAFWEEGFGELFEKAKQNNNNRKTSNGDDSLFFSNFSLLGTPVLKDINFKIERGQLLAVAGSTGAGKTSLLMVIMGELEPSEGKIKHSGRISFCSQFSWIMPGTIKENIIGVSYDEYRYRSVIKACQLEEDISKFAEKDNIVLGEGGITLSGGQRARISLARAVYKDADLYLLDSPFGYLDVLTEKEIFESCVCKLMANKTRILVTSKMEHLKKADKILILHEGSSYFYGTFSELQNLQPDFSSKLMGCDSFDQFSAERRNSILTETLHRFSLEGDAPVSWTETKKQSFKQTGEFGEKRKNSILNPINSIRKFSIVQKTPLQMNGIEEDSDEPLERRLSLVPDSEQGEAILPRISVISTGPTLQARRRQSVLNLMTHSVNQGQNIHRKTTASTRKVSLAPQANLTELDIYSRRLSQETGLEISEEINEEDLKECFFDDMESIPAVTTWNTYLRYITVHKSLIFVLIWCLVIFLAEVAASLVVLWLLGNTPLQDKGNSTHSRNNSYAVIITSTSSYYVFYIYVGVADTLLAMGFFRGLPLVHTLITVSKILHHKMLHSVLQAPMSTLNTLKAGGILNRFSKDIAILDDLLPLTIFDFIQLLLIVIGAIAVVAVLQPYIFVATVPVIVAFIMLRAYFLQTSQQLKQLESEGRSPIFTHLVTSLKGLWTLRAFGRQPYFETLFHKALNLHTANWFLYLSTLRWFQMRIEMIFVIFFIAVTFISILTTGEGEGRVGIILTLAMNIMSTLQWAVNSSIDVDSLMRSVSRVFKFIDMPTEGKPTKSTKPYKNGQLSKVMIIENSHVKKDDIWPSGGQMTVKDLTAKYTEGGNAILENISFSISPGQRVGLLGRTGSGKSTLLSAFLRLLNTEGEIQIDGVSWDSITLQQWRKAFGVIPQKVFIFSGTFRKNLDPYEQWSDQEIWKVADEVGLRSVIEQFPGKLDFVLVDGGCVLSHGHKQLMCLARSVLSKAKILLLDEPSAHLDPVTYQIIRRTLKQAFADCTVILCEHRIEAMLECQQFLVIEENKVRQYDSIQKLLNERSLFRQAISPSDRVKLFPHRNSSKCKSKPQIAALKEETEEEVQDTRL
# ASSAY METHOD TEXT: Membrane potential dye, Enteroid Assay A
# Assay type: cell-based
# CONDITION LABEL: enteroid cells incubated with test compound 18-24 hours; acute 10 μM forskolin and 300 nM N-[2,4-bis(1,1-dimethylethyl)-5-hydroxyphenyl]-1,4-dihydro-4-oxoquinoline-3-carboxamide; read-out: Ent. A EC50
Would you kindly list EC50 for each of these compounds?

# query: EC50 of entry Cc1cccc(C)c1-c1cc2nc(n1)NS(=O)(=O)c1cccc(c1)C(=O)N1CCC3(CC3)C(C1)O2 (centres unmarked) < 1 µM

# query: EC50 of entry Cc1cccc(C)c1-c1cc2nc(n1)NS(=O)(=O)c1cccc(c1)C(=O)N1CCN(Cc3nccs3)CC(C1)O2 (centres unmarked) 1 to 3 µM

# query: EC50 of entry Cc1cccc(C)c1-c1cc2nc(n1)NS(=O)(=O)c1cccc(c1)C(=O)N1Cc3ccccc3C(C1)O2 (centres unmarked) < 1 µM

# query: EC50 of entry Cc1cccc(C)c1-c1cc2nc(n1)NS(=O)(=O)c1cccc(c1)C(=O)N1CCN(CC3CC3)C[C@@H]1CO2 3 to 30 µM

# query: EC50 of entry Cc1cccc(C)c1-c1cc2nc(n1)NS(=O)(=O)c1cccc(c1)C(=O)N1CCNC[C@H](C1)O2 3 to 30 µM

# query: EC50 of entry Cc1cccc(C)c1-c1cc2nc(n1)NS(=O)(=O)c1cccc(c1)C(=O)N1CCNC[C@@H]1CO2 3 to 30 µM

# query: EC50 of entry Cc1cccc(C)c1-c1cc2nc(n1)NS(=O)(=O)c1cccc(c1)C(=O)N1CCN(CC3CCCCC3)CC1CO2 (centres unmarked) < 1 µM

# query: EC50 of entry COC(=O)C1CC2CN(C1)C(=O)Nc1cccc(c1)S(=O)(=O)Nc1nc(cc(-c3c(C)cccc3C)n1)O2 (centres unmarked) 1 to 3 µM

# query: EC50 of entry Cc1cccc(C)c1-c1cc2nc(n1)NS(=O)(=O)c1cccc(c1)C(=O)N1CCN(C(=O)C3CCCCC3)C[C@@H]1CO2 < 1 µM

# query: EC50 of entry Cc1cccc(C)c1-c1cc2nc(n1)NS(=O)(=O)c1cc(n(C)c1)C(=O)N1Cc3ccccc3C(C1)O2 (centres unmarked) < 1 µM

# query: EC50 of entry Cc1cccc(C)c1-c1cc2nc(n1)NS(=O)(=O)c1cccc(c1)CN1Cc3ccccc3C(C1)O2 (centres unmarked) < 1 µM

# query: EC50 of entry Cc1cccc(C)c1-c1cc2nc(n1)NS(=O)(=O)c1cccc(c1)C(=O)N1CCN(C(=O)N3CCCCC3)C[C@@H]1CO2 3 to 30 µM

# query: EC50 of entry Cc1cccc(C)c1-c1cc2nc(n1)NS(=O)(=O)c1cccc(c1)C(=O)N1CC(C)(C)CC1CO2 (centres unmarked) 1 to 3 µM

# query: EC50 of entry Cc1cccc(C)c1-c1cc2nc(n1)NS(=O)(=O)c1cccc(c1)C(=O)N1CC3CC(O2)C1C3 (centres unmarked) 3 to 30 µM

----------
# TARGET OR TEST SYSTEM: CFTR-mediated chloride transport in human intestinal epithelial enteroid cells (Homo sapiens)
# ASSAY METHOD TEXT: Membrane potential dye, Enteroid Assay A
# Format: cell-based
# CONDITION LABEL: percentage of chloride transport of triple combination control (3 μM N-[(6-amino-2-pyridyl)sulfonyl]-6-(3-fluoro-5-isobutoxy-phenyl)-2-[(4S)-2,2,4-trimethylpyrrolidin-1-yl]pyridine-3-carboxamide based)
# Protocol: Base medium (ADF+++) consisted of Advanced DMEM/Ham's F12, 2 mM Glutamax, 10 mM HEPES, […] penicillin/streptomycin. Bath 1 Buffer consisted of 1 mM MgCl2, 160 mM NaCl, 4.5 mM KCl, 10 mM HEPES, 10 mM Glucose, 2 mM CaCl2. […] Briefly, cells were washed 5 times in Bath 1 Buffer. […] Chloride transport was initiated by addition of Chloride Free Dye Stimulation Solution and the fluorescence signal was read for 15 min. […]
ASSAY READOUT: Ent. A Max Activity (%)

A selection of reference data follows.
                                   compound         meas_value
0  Cc1cccc(C)c1-c1cc2nc(n1)NS(=O)(=O)c1cccc(c1)C(=O)N1Cc3ccccc3C[C@@H]1CO2  +++ (+++ is >60%)
1  Cc1cccc(C)c1-c1cc2nc(n1)NS(=O)(=O)c1cccc(c1)C(=O)N1CCN(Cc3cocn3)C[C@@H]1CO2  ++ (++ is 30-60%)
2  Cc1cccc(C)c1-c1cc2nc(n1)NS(=O)(=O)c1cccc(c1)C(=O)N1CCN(Cc3ccc[nH]c3=O)C[C@@H]1CO2     + (+ is <300%)
3  Cc1cccc(C)c1-c1cc2nc(n1)NS(=O)(=O)c1cccc(c1)C(=O)N1CCN(C(C)C)C[C@@H]1CO2  +++ (+++ is >60%)
4  Cc1cccc(C)c1-c1cc2nc(n1)NS(=O)(=O)c1cccc(c1)C(=O)N1CCN(Cc3cccnc3)C[C@H](C1)O2  ++ (++ is 30-60%)

# query: Ent. A Max Activity (%) of entry Cc1cccc(C)c1-c1cc2nc(n1)NS(=O)(=O)c1cccc(c1)C(=O)N1CCN(CC3CCOCC3)CC1CO2 (stereo not drawn) ++ (++ is 30-60%)

# query: Ent. A Max Activity (%) of entry Cc1cccc(C)c1-c1cc2nc(n1)NS(=O)(=O)c1cccc(c1)C(=O)N1CCN(Cc3cccc(O)c3)C[C@@H]1CO2 +++ (+++ is >60%)

# query: Ent. A Max Activity (%) of entry Cc1cccc(C)c1-c1cc2nc(n1)NS(=O)(=O)c1cccc(c1)C(=O)N1CCN(CC3CCOC(C)(C)C3)C[C@@H]1CO2 (stereo partly drawn) +++ (+++ is >60%)

# query: Ent. A Max Activity (%) of entry Cc1cccc(C)c1-c1cc2nc(n1)NS(=O)(=O)c1cccc(c1)C(=O)N1CCN(Cc3nccs3)C[C@@H]1CO2 +++ (+++ is >60%)

# query: Ent. A Max Activity (%) of entry Cc1cccc(C)c1-c1cc2nc(n1)NS(=O)(=O)c1cccc(c1)C(=O)N1Cc3ccccc3C[C@H]1CO2 ++ (++ is 30-60%)

# query: Ent. A Max Activity (%) of entry Cc1cccc(C)c1-c1cc2nc(n1)NS(=O)(=O)c1cccc(c1)C(=O)N1CCN(C(=O)OC(C)(C)C)C[C@@H]1CO2 ++ (++ is 30-60%)

# query: Ent. A Max Activity (%) of entry Cc1cccc(C)c1-c1cc2nc(n1)NS(=O)(=O)c1cc(n(C)c1)CC(=O)N1Cc3ccccc3C(C1)O2 (stereo not drawn) ++ (++ is 30-60%)

# query: Ent. A Max Activity (%) of entry Cc1cccc(C)c1-c1cc2nc(n1)NS(=O)(=O)c1cccc(c1)C(=O)N1CCN(CC3CC3)C[C@H](C1)O2 +++ (+++ is >60%)

# query: Ent. A Max Activity (%) of entry Cc1cccc(C)c1-c1cc2nc(n1)NS(=O)(=O)c1cccc(c1)C(=O)N1CCN(C(=O)CN(C)C)CC1CO2 (stereo not drawn) + (+ is <300%)

# query: Ent. A Max Activity (%) of entry Cc1cccc(C)c1-c1cc2nc(n1)NS(=O)(=O)c1cccc(c1)C(=O)N1CC(CC3(CCCC3)C1)O2 (stereo not drawn) ++ (++ is 30-60%)

# query: Ent. A Max Activity (%) of entry Cc1cccc(C)c1-c1cc2nc(n1)NS(=O)(=O)c1cccc(c1)C(=O)N1CCN(Cc3ccccc3)C[C@@H]1CO2 +++ (+++ is >60%)

# query: Ent. A Max Activity (%) of entry Cc1cccc(C)c1-c1cc2nc(n1)NS(=O)(=O)c1cccc(c1)C(=O)N1Cc3cccnc3[C@H](C1)O2 (single isomer, unassigned) + (+ is <300%)

# query: Ent. A Max Activity (%) of entry Cc1cccc(C)c1-c1cc2nc(n1)NS(=O)(=O)c1cccc(c1)C(=O)N1CCC[C@@H]1CO2 +++ (+++ is >60%)

# query: Ent. A Max Activity (%) of entry Cc1cccc(C)c1-c1cc2nc(n1)NS(=O)(=O)c1cccc(c1)C(=O)N1CCOC[C@@H]1[C@@H](Cc1ccccc1)O2 +++ (+++ is >60%)

# query: Ent. A Max Activity (%) of entry Cc1cccc(C)c1-c1cc2nc(n1)NS(=O)(=O)c1cccc(c1)CCC(=O)N1Cc3ccccc3C(C1)O2 (stereo not drawn) + (+ is <300%)

# query: Ent. A Max Activity (%) of entry Cc1cccc(C)c1-c1cc2nc(n1)NS(=O)(=O)c1cccc(c1)C(=O)N1CCN(Cc3ccn(C)n3)CC(C1)O2 (stereo not drawn) +++ (+++ is >60%)
